experiment: First-in-human trial: pharmacokinetics in plasma and urine; format: in vivo; settings: human, plasma, oral, 45 mg, Schedule 1, 45 mg, Day 3, N=3; median (range); read-out: AUC24hr
VALUE TYPE: AUC(0-t)

(Q) Query: AUC(0-t); subject: COc1cccc2cc(-c3nc([C@H]4CC[C@H](C(=O)O)CC4)n4ncnc(N)c34)[nH]c12 [OSI-027]
(A) 35200 ng·h/mL

====

test: First-in-human trial: pharmacokinetics in plasma and urine; type: in vivo; conditions: human, plasma, oral, 160 mg, Schedule 2, 160 mg, N=3; median (range)
VALUE TYPE: AUC(0-inf) (µg·h/mL)
Answer format: numeric, µg·h/mL implied, no suffix.

(Q) Query: AUC(0-inf); subject: `COc1cccc2cc(-c3nc([C@H]4CC[C@H](C(=O)O)CC4)n4ncnc(N)c34)[nH]c12`
(A) 267
